- Tested on: Pythium ultimum
- protocolText: Amended agar assay
- Assay type: cell-based
- setupConditions: Globisporangium ultimum; amended PDA agar, 2 ppm, % reduction in colony growth vs control plate, 18° C.
observationType: inhibition of growth at 2 ppm

inhibition of growth at 2 ppm measured on Cn1nnnc1-n1c(OCCc2ccccn2)nc2ccccc21 [Example 25] = < 50%

Notebook: Cc1cccc(CNc2cccc(COc3nc4c(Cl)cccc4n3-c3nnnn3C)n2)c1 [Example 101] , inhibition of growth at 2 ppm read as 50 to 99%

Sample Cc1cccc(CNc2cccc(COc3nc4c(Br)cccc4n3-c3nnnn3C)n2)c1 [Example 102] ; inhibition of growth at 2 ppm observed: 50 to 99%
